src = paper PMC11480844

B1: H2-Kb / Ed40 (parent complex)
chain 1: GDSVTQTEGPVTVSESESLIINCTYSATSIAYPNLFWYVRYPGEGLQLLLKVITAGQKGSSRGFEATYNKETTSFHLQKASVQESDSAVYYCALGDGYTGNYKYVFGAGTRLKVIA
chain 2: DSGVVQSPRHIIKEKGGRSVLTCIPISGHSNVVWYQQTLGKELKFLIQHYEKVERDKGFLPSRFSVQQFDDYHSEMNMSALELEDSAMYFCASSGASAETLYFGSGTRLTVL
chain 3: not shown
chain 4: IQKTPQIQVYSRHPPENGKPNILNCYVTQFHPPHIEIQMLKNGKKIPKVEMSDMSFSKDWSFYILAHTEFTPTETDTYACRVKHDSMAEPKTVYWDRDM
chain 5: SIINFEKL

Variants of: B1
Test: % of reporter cells activated (NFAT-GFP), raw; also: test concentration or dose not given here
attribute_measured: ratio to parent

Example entries begin here.
- chain 5 I2G: 0.922
- chain 5 I2V: 1.15

[A] chain 5 K7R
[B] chain 5 S1G
[C] chain 5 K7I
Q) Given 3 variants, produce a descending ranking by ratio to parent. Reply: labels, ordered per the request.
A) B, A, C
(B: 1, A: 0.622, C: 0.165)
